Every entry's value here was drawn from patent US20210002231A1.

Measured pEC50 by item
- Assay system: human MOPr (Homo sapiens, UniProt P35372)
- Sequence (P35372 whole entry): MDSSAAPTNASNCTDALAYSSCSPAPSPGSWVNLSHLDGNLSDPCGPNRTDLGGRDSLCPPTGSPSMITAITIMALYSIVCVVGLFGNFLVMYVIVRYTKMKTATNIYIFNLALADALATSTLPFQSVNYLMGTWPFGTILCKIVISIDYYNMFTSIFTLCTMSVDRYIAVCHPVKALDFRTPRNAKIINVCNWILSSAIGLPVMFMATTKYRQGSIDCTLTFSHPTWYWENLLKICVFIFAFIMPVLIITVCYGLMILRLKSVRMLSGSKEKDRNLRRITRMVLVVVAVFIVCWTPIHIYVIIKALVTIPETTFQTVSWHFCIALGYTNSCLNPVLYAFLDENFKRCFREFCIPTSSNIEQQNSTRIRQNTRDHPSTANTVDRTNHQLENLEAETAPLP
- Assay comment: BRET1 β-arrestin-2 recruitment assay
- Format: cell-based
- Set-up: expressed in transfected cells; host or cells: HEK293 cells stably expressing eYFP-β-arrestin-2, transiently transfected with the Rluc8-MOP plasmid
- Conditions: Table 3B; — = non-detectable recruitment; read-out: MOPr (β-arrestin-2) EC50
pEC50: −log10 of the molar value. Starred links: 1 amine or outer side, 2 acyl side, 3 side chain; linkers in the order of their positions; H or OH if unused. Non-standard residues stand in square brackets, D forms with d. Residues, ends and D or L forms follow the SMILES beside them. Nva(5-(4-Bn-piperidin-1-yl)) = N[C@@H](CCCN1CCC(Cc2ccccc2)CC1)C(=O)O; X5 = O=C1[C@@H](N[*:1])Cc2ccccc2CN1CCCC(=O)[*:2]; X1 = O=C1[C@@H](N[*:1])Cc2ccccc2CN1CCC(=O)[*:2]; Dmt = Cc1cc(O)cc(C)c1C[C@H](N)C(=O)O
Measurement label: pEC50

[[record]]
compound = "Cc1cc(O)cc(C)c1C[C@H](N)C(=O)N[C@H](CCCNC(=N)N)C(=O)N[C@@H](Cc1ccccc1)C(=O)NCCC(=O)N[C@@H](CCCN1CCC(Cc2ccccc2)CC1)C(=O)N[C@@H](Cc1ccccc1)C(N)=O [DP0019, H-Dmt-D-Arg-Phe-β-Ala-Bpa-Phe-NH2] (HELM PEPTIDE1{[Cc1cc(O)cc(C)c1C[C@H](N)C(=O)[*:2]].[dR].F.[bAla].[O=C([C@H](CCCN1CCC(Cc2ccccc2)CC1)N[*:1])[*:2]].F.[am]}$$$$V2.0)"
assay_system = "human MOPr (Homo sapiens, UniProt P35372)"
test_result = 6.79

[[record]]
compound = "Cc1cc(O)cc(C)c1C[C@H](N)C(=O)N[C@H](CCCNC(=N)N)C(=O)N[C@H]1Cc2ccccc2CN(CCCC(=O)N[C@@H](CCCN2CCC(Cc3ccccc3)CC2)C(=O)N[C@H](C(N)=O)C(C)C)C1=O [DP0020, H-Dmt-D-Arg-AbaGABA-Bpa-Val-NH2] (H-[Dmt][dR][X5][Nva(5-(4-Bn-piperidin-1-yl))]V-NH2)"
assay_system = "human MOPr (Homo sapiens, UniProt P35372)"
test_result = 6.83

[[record]]
compound = "Cc1cc(O)cc(C)c1C[C@H](N)C(=O)N[C@H](CCCNC(=N)N)C(=O)N[C@H]1Cc2ccccc2CN(CCC(=O)N[C@@H](CCCN2CCC(Cc3ccccc3)CC2)C(=O)N[C@@H](Cc2ccc(O)cc2)C(N)=O)C1=O [DP0004, H-Dmt-D-Arg-Aba-β-Ala-Bpa-Tyr-NH2] (H-[Dmt][dR][X1][Nva(5-(4-Bn-piperidin-1-yl))]Y-NH2)"
assay_system = "human MOPr (Homo sapiens, UniProt P35372)"
test_result = 6.90


----------
Reported Emax is given for each of the following molecules.
- Assay system: human MOPr (Homo sapiens)
- Assay comment: BRET1 β-arrestin-2 recruitment assay
- Assay type: cell-based
- Parameters: expressed in transfected cells; host or cells: HEK293 cells stably expressing eYFP-β-arrestin-2, transiently transfected with the Rluc8-MOP plasmid
- Conditions: read-out: MOPr (β-arrestin-2) Emax
Starred links: 1 amine or outer side, 2 acyl side, 3 side chain; linkers in the order of their positions; H or OH if unused. Non-standard residues stand in square brackets, D forms with d. Residues, ends and D or L forms follow the SMILES beside them. Nva(5-(4-Bn-piperidin-1-yl)) = N[C@@H](CCCN1CCC(Cc2ccccc2)CC1)C(=O)O; X1 = O=C1[C@@H](N[*:1])Cc2ccccc2CN1CCC(=O)[*:2]; Dmt = Cc1cc(O)cc(C)c1C[C@H](N)C(=O)O
Measurement label: Emax

[[record]]
molecule = "Cc1cc(O)cc(C)c1C[C@H](N)C(=O)N[C@H](CCCNC(=N)N)C(=O)N[C@H]1Cc2ccccc2CN(CCC(=O)N[C@@H](CCCN2CCC(Cc3ccccc3)CC2)C(=O)N[C@@H](Cc2c[nH]c3ccccc23)C(N)=O)C1=O [DP0005, H-Dmt-D-Arg-Aba-β-Ala-Bpa-Trp-NH2] (H-[Dmt][dR][X1][Nva(5-(4-Bn-piperidin-1-yl))]W-NH2)"
test_result = "42%"

[[record]]
molecule = "Cc1cc(O)cc(C)c1C[C@H](N)C(=O)N[C@H](CCCNC(=N)N)C(=O)N[C@H]1Cc2ccccc2CN(CCC(=O)N[C@@H](CCCN2CCC(Cc3ccccc3)CC2)C(=O)N[C@H](C(N)=O)C(C)C)C1=O [DP0001, H-Dmt-D-Arg-Aba-β-Ala-Bpa-Val-NH2] (H-[Dmt][dR][X1][Nva(5-(4-Bn-piperidin-1-yl))]V-NH2)"
test_result = "52%"


----------
This section presents molecules with their documented pEC50 values.
- Assay system: human MOPr (Homo sapiens)
- Assay comment: cell-based
- Format: cell-based
- Parameters: expressed in transfected cells; HEK293-Glo20F cells (cAMP)
- Conditions: Table 3B; read-out: MOPr (cAMP) EC50
- Description: Stimulation by endogenous RF-amide peptides or test compounds for [^35S]-GTPγS binding to membranes from CHO cells expressing human NPFF1R or NPFF2R, were examined as reported. 1.6. […] The cAMP responses were measured in presence of D-luciferin (1 mM).
pEC50: −log10 of the molar value. Starred links: 1 amine or outer side, 2 acyl side, 3 side chain; linkers in the order of their positions; H or OH if unused. Non-standard residues stand in square brackets, D forms with d. Residues, ends and D or L forms follow the SMILES beside them. Nva(5-(4-Bn-piperidin-1-yl)) = N[C@@H](CCCN1CCC(Cc2ccccc2)CC1)C(=O)O; X5 = O=C1[C@@H](N[*:1])Cc2ccccc2CN1CCCC(=O)[*:2]; X1 = O=C1[C@@H](N[*:1])Cc2ccccc2CN1CCC(=O)[*:2]; Dmt = Cc1cc(O)cc(C)c1C[C@H](N)C(=O)O
Measurement label: pEC50

[[record]]
molecule = "Cc1cc(O)cc(C)c1C[C@H](N)C(=O)N[C@H](CCCNC(=N)N)C(=O)N[C@H]1Cc2ccccc2CN(CCCC(=O)N[C@@H](CCCN2CCC(Cc3ccccc3)CC2)C(=O)N[C@H](C(N)=O)C(C)C)C1=O [DP0020, H-Dmt-D-Arg-AbaGABA-Bpa-Val-NH2] (H-[Dmt][dR][X5][Nva(5-(4-Bn-piperidin-1-yl))]V-NH2)"
assay_system = "human MOPr (Homo sapiens)"
test_result = 8.20

[[record]]
molecule = "Cc1cc(O)cc(C)c1C[C@H](N)C(=O)N[C@H](CCCNC(=N)N)C(=O)N[C@H]1Cc2ccccc2CN(CCC(=O)N[C@@H](CCCN2CCC(Cc3ccccc3)CC2)C(=O)N[C@@H](Cc2c[nH]c3ccccc23)C(N)=O)C1=O [DP0005, H-Dmt-D-Arg-Aba-β-Ala-Bpa-Trp-NH2] (H-[Dmt][dR][X1][Nva(5-(4-Bn-piperidin-1-yl))]W-NH2)"
assay_system = "human MOPr (Homo sapiens)"
test_result = 8.10

[[record]]
molecule = "Cc1cc(O)cc(C)c1C[C@H](N)C(=O)N[C@H](CCCNC(=N)N)C(=O)N[C@H]1Cc2ccccc2CN(CCC(=O)N[C@H](CCCN2CCC(Cc3ccccc3)CC2)C(=O)N[C@@H](Cc2ccccc2)C(N)=O)C1=O"
assay_system = "human MOPr (Homo sapiens)"
test_result = 7.87


----------
# pEC50 listing for each entry below
- Assay system: human MOPr (Homo sapiens, UniProt P35372)
- Assay comment: BRET1 β-arrestin-2 recruitment assay
- Assay type: cell-based
- Parameters: expressed in transfected cells; host or cells: HEK293 cells stably expressing eYFP-β-arrestin-2, transiently transfected with the Rluc8-MOP plasmid
- Conditions: Table 3B; — = non-detectable recruitment; read-out: MOPr (β-arrestin-2) EC50
- Procedure: Peak response amplitudes were normalized to basal and maximal (cells permeabilized with 20 μM digitonin) fluorescence levels. […] Briefly, two days prior the experiment, HEK293 cells stably expressing eYFP-tagged β-arrestin-2 were transfected with the plasmid encoding Rluc8-MOP receptor. β-Arrestin-2 recruitment was measured at 37° C. in presence of 5 μM Coelenterazine H, 5 min after agonist addition.
pEC50: −log10 of the molar value. Starred links: 1 amine or outer side, 2 acyl side, 3 side chain; linkers in the order of their positions; H or OH if unused. Non-standard residues stand in square brackets, D forms with d. Residues, ends and D or L forms follow the SMILES beside them. Nva(5-(4-Bn-piperidin-1-yl)) = N[C@@H](CCCN1CCC(Cc2ccccc2)CC1)C(=O)O; X1 = O=C1[C@@H](N[*:1])Cc2ccccc2CN1CCC(=O)[*:2]; Dmt = Cc1cc(O)cc(C)c1C[C@H](N)C(=O)O; dNMeA = CN[C@H](C)C(=O)O
Measurement label: pEC50

[[record]]
molecule = "Cc1cc(O)cc(C)c1C[C@H](N)C(=O)N(C)[C@H](C)C(=O)N[C@H]1Cc2ccccc2CN(CCC(=O)N[C@@H](CCCN2CCC(Cc3ccccc3)CC2)C(=O)N[C@@H](Cc2ccccc2)C(N)=O)C1=O [DP0007, H-Dmt-N(Me)-D-Ala-Aba-β-Ala-Bpa-Phe-NH2] (H-[Dmt][dNMeA][X1][Nva(5-(4-Bn-piperidin-1-yl))]F-NH2)"
measurement_label = "pEC50"
test_result = 6.67

[[record]]
molecule = "Cc1cc(O)cc(C)c1C[C@H](N)C(=O)N[C@H](CCCNC(=N)N)C(=O)N[C@H]1Cc2ccccc2CN(CCC(=O)N[C@@H](CCCN2CCC(Cc3ccccc3)CC2)C(=O)N[C@H](Cc2ccccc2)C(N)=O)C1=O [DP0015, H-Dmt-D-Arg-Aba-β-Ala-Bpa-D-Phe-NH2]"
measurement_label = "pEC50"
test_result = 7.10

